Experiment: Solubility in PGMEA
Assay type: physicochemical
Settings: concentration when PGMEA was added dropwise to 0.1 g of the compound under stirring and was dissolved completely
Protocol: That the obtained solid was an intended product was confirmed by ^1H-NMR and IR. Furthermore, the solubility of the obtained compound was measured. The solubility was a concentration when PGMEA was added dropwise to 0.1 g of the compound under stirring and was dissolved completely. The results thereof are shown in [Table 1] to [Table 4]. That the obtained solid was an intended product was confirmed by ^1H-NMR and IR. Furthermore, the solubility of the obtained compound was measured. […]
property: Solubility (PGMEA)

>  <molecular string>
CCN(CC)c1ccc(/C=C(\C#N)C(=O)OCCCCCOC(=O)/C(C#N)=C/c2ccc(N(CC)CC)cc2)cc1

>  <result>
0.6 wt %

$$$$

Measured Solubility (PGMEA) of CN(CCO)c1ccc(/C=C(\C#N)C(=O)OCC(C)(COC(=O)/C(C#N)=C/c2ccc(N(C)CCO)cc2)COC(=O)/C(C#N)=C/c2ccc(N(C)CCO)cc2)cc1 : 1.0 or less wt %

The compound CCN(CC)c1ccc(/C=C(\C#N)C(=O)OCC(CC)(COC(=O)/C(C#N)=C/c2ccc(N(CC)CC)cc2)COC(=O)/C(C#N)=C/c2ccc(N(CC)CC)cc2)cc1 showed Solubility (PGMEA) equal to 1.0 or less wt %

---

experiment: Evaluation of absorption wavelength property in CHCl3 solution; format: physicochemical; set-up: unit not given here; conditions: molar absorption coefficient
ε under 100000 gets YES, anything at or over 100000 gets NO.

Would you please look over these solved cases?
>  <molecule>
CCN(CC)c1ccc(/C=C(\C#N)C(=O)OCCCCCOC(=O)/C(C#N)=C/c2ccc(N(CC)CC)cc2)cc1 [Compound No. 4]

>  <qualitative label>
NO

$$$$
>  <molecule>
CCN(CC)c1ccc(/C=C(\C#N)C(=O)OCCOC(=O)/C(C#N)=C/c2ccc(N(CC)CC)cc2)cc1 [Compound No. 1]

>  <qualitative label>
NO

$$$$
>  <molecule>
C=C(C)C(=O)OCCN(C)c1ccc(/C=C(\C#N)C(=O)OCCCCCCOC(=O)/C(C#N)=C/c2ccc(N(C)CCOC(=O)C(=C)C)cc2)cc1 [Compound No. 66]

>  <qualitative label>
YES

$$$$

Q: Does CCN(CC)c1ccc(/C=C(\C#N)C(=O)Oc2ccc(C3(c4ccc(OC(=O)/C(C#N)=C/c5ccc(N(CC)CC)cc5)cc4)CCCCC3)cc2)cc1 [Compound No. 52] have ε strictly under 100000?
A: NO

Q: Dear colleague, could you confirm whether ε of CCN(CC)c1ccc(/C=C(\C#N)C(=O)OCC(C)(COC(=O)/C(C#N)=C/c2ccc(N(C)CCO)cc2)COC(=O)/C(C#N)=C/c2ccc(N(C)CCO)cc2)cc1 [Compound No. 99] falls below 100000? Thanks.
A: NO

Q: Quick check: ε of CCN(CCC#N)c1ccc(/C=C(\C#N)C(=O)OCCCCCCOC(=O)/C(C#N)=C/c2ccc(N(CC)CCC#N)cc2)cc1 [Compound No. 58] under 100000?
A: YES

Q: For this molecule, is ε lower than 100000? CCCCN(CCCC)c1ccc(/C=C(\C#N)C(=O)OCC(C)(COC(=O)/C(C#N)=C/c2ccc(N(CCCC)CCCC)cc2)COC(=O)/C(C#N)=C/c2ccc(N(CCCC)CCCC)cc2)cc1 [Compound No. 102]
A: NO

Q: Is ε of CCCCN(CCCC)c1ccc(/C=C(\C#N)C(=O)Oc2ccc(C(c3ccc(OC(=O)/C(C#N)=C/c4ccc(N(CCCC)CCCC)cc4)cc3)(C(F)(F)F)C(F)(F)F)cc2)cc1 [Compound No. 69] strictly below 100000?
A: NO

Q: ε under 100000? Item: CC(COC(=O)/C(C#N)=C/c1ccc(N(Cc2ccccc2)Cc2ccccc2)cc1)(COC(=O)/C(C#N)=C/c1ccc(N(Cc2ccccc2)Cc2ccccc2)cc1)COC(=O)/C(C#N)=C/c1ccc(N(Cc2ccccc2)Cc2ccccc2)cc1 [Compound No. 101]
A: NO

Q: For CCN(CC)c1ccc(/C=C(\C#N)C(=O)OCCCOC(=O)/C(C#N)=C/c2ccc(N(CC)CC)cc2)cc1 [Compound No. 3] , is the recorded ε below the cut-off of 100000?
A: NO

---

assay: Heat resistance of exposed coating film of coloring alkali-developable photosensitive composition; assay type: physicochemical; settings: coating film of composition containing the compound, on glass
property: λmax (nm)
Field: numeric (nm). Do not append units.

>  <compound>
CCN(CC)c1ccc(/C=C(\C#N)C(=O)OCC(C)(COC(=O)/C(C#N)=C/c2ccc(N3CCOCC3)cc2)COC(=O)/C(C#N)=C/c2ccc(N3CCOCC3)cc2)cc1

>  <λmax, nm>
417

$$$$
>  <compound>
CN(CCO)c1ccc(/C=C(\C#N)C(=O)OCC(C)(COC(=O)/C(C#N)=C/c2ccc(N(C)CCO)cc2)COC(=O)/C(C#N)=C/c2ccc(N(C)CCO)cc2)cc1

>  <λmax, nm>
431

$$$$
>  <compound>
CCN(CC)c1ccc(/C=C(\C#N)C(=O)OCC(CC)(COC(=O)/C(C#N)=C/c2ccc(N(CC)CC)cc2)COC(=O)/C(C#N)=C/c2ccc(N(CC)CC)cc2)cc1

>  <λmax, nm>
430

$$$$
>  <compound>
CCOCCOC(=O)/C(C#N)=C/c1ccc(N(CC)CC)cc1 [Comparative Compound No. 2, reference compound]

>  <λmax, nm>
433

$$$$

Form field λmax, entry CCN(CC)c1ccc(/C=C(\C#N)C(=O)OCC(C)(COC(=O)/C(C#N)=C/c2ccc(N(C)CCO)cc2)COC(=O)/C(C#N)=C/c2ccc(N(CC)CC)cc2)cc1 (centres unmarked) : 436

---

experiment: Evaluation of absorption wavelength property in CHCl3 solution; format: physicochemical
property: λmax (nm)
Number in nm, nothing else.

>  <compound>
CN(CCO)c1ccc(/C=C(\C#N)C(=O)OCCCCCCOC(=O)/C(C#N)=C/c2ccc(N(C)CCO)cc2)cc1

>  <numeric readout>
420

$$$$
>  <compound>
CCN(CC)c1ccc(/C=C(\C#N)C(=O)Oc2ccc(C(C)(C)c3ccc(OC(=O)/C(C#N)=C/c4ccc(N(CC)CC)cc4)cc3)cc2)cc1

>  <numeric readout>
440

$$$$
>  <compound>
C=C(C)C(=O)OCCN(C)c1ccc(/C=C(\C#N)C(=O)OCCCCCCOC(=O)/C(C#N)=C/c2ccc(N(C)CCOC(=O)C(=C)C)cc2)cc1

>  <numeric readout>
419

$$$$

CCN(CC)c1ccc(/C=C(\C#N)C(=O)OCC(C)(COC(=O)/C(C#N)=C/c2ccc(N(CC)CC)cc2)COC(=O)/C(C#N)=C/c2ccc(N(CC)CC)cc2)cc1 yielded λmax of 436

Please fill in: λmax reported for CCN(CC)c1ccc(/C=C(\C#N)C(=O)Oc2ccc(C3(c4ccc(OC(=O)/C(C#N)=C/c5ccc(N(CC)CC)cc5)cc4)CCCCC3)cc2)cc1 = 441

Query CC(=O)OCCN(CCOC(C)=O)c1ccc(/C=C(\C#N)C(=O)OCCCCCCCOC(=O)/C(C#N)=C/c2ccc(N(CCOC(C)=O)CCOC(C)=O)cc2)cc1 yields λmax of 409

So, CCN(CC)c1ccc(/C=C(\C#N)C(=O)OCCCCCOC(=O)/C(C#N)=C/c2ccc(N(CC)CC)cc2)cc1 ? Its λmax was 431

Record summary for CCCCN(CCCC)c1ccc(/C=C(\C#N)C(=O)Oc2ccc(S(=O)(=O)c3ccc(OC(=O)/C(C#N)=C/c4ccc(N(CCCC)CCCC)cc4)cc3)cc2)cc1 : reported λmax = 453

---

Assay: Solubility in PGMEA
Type: physicochemical
Conditions: concentration when PGMEA was added dropwise to 0.1 g of the compound under stirring and was dissolved completely
Experimental: That the obtained solid was an intended product was confirmed by ^1H-NMR and IR. Furthermore, the solubility of the obtained compound was measured. The solubility was a concentration when PGMEA was added dropwise to 0.1 g of the compound under stirring and was dissolved completely. The results thereof are shown in [Table 1] to [Table 4]. That the obtained solid was an intended product was confirmed by ^1H-NMR and IR. Furthermore, the solubility of the obtained compound was measured. […]
In this section we review reported Solubility (PGMEA) values for a set of compounds.

Reported Solubility (PGMEA) of CCCCN(CCCC)c1ccc(/C=C(\C#N)C(=O)Oc2ccc(S(=O)(=O)c3ccc(OC(=O)/C(C#N)=C/c4ccc(N(CCCC)CCCC)cc4)cc3)cc2)cc1 [Compound No. 70] : 1.0 or less wt %

Form field Solubility (PGMEA), entry CCN(CC)c1ccc(/C=C(\C#N)C(=O)OCC(C)(COC(=O)/C(C#N)=C/c2ccc(N(CC)CC)cc2)COC(=O)/C(C#N)=C/c2ccc(N(c3ccccc3)c3ccccc3)cc2)cc1 (stereo not drawn) [Compound No. 96] : 10.0 wt %

In plain terms, N#C/C(=C\c1ccc(N(c2ccccc2)c2ccccc2)cc1)C(=O)OCCCCCCCOC(=O)/C(C#N)=C/c1ccc(N(c2ccccc2)c2ccccc2)cc1 [Compound No. 65] has a documented Solubility (PGMEA) of 5.3 wt %
